Percentage (%) bound of compound to 14-3-3σ, ERα 24h values for the compounds below.
- Tgt: 14-3-3σ/ERα (Homo sapiens, UniProt P03372+P31947)
- Construct: The 14-3-3 σ isoform (full-length for mass spectrometry and fluorescence anisotropy assays, ΔC for crystallography); made in house; host or cells: E. coli Rosetta 2(DE3)pLysS, pPROEX HTb vector
- Sequence (P31947 whole entry, other chains not shown, canonical isoform): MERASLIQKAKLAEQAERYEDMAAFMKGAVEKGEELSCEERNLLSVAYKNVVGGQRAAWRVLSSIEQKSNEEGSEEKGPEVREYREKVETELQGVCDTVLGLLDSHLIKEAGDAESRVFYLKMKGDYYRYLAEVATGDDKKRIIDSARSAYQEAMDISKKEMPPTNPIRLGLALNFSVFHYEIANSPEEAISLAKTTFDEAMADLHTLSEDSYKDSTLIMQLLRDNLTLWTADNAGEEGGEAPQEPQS
- Protocol description: Mass spectrometry dose response, compound binding to 14-3-3σ in the presence of ERα phosphopeptide
- Cond: 100 nM compound, 100 nM 14-3-3σ, ERα-peptide 2 µM, 24h

> print(dat)
                           molecular.string  experimental.result
1  O=C(CCl)NC1CC2(CCN(C(=O)C3(Nc4ccc(Cl)cc4)CCOCC3)CC2)C1                94.0%

Query: Recorded Percentage (%) bound of compound to 14-3-3σ, ERα 24h of Cl.O=C(CCl)NCC1CCN(C(=O)C2(Oc3ccc(Cl)cc3)CCNCC2)CC1 , please.
Response: 82.6%

Query: Recorded Percentage (%) bound of compound to 14-3-3σ, ERα 24h of O=C(CCl)NCC1CCN(C(=O)C2(Nc3ccc(Cl)cc3)CCCC2)CC1 , please.
Response: 96.6%

* * *

- Tgt: 14-3-3σ/ERα (Homo sapiens, UniProt P03372+P31947)
- Construct: The 14-3-3 σ isoform (full-length for mass spectrometry and fluorescence anisotropy assays, ΔC for crystallography); made in house; host or cells: E. coli Rosetta 2(DE3)pLysS, pPROEX HTb vector
- Protocol description: Mass spectrometry dose response, compound binding to 14-3-3σ in the presence of ERα phosphopeptide
- Cond: 100 nM compound, 100 nM 14-3-3σ, ERα-peptide 2 µM, 8h
Could you mark each record TRUE if its Percentage (%) bound of compound to 14-3-3σ, ERα 8h falls strictly under 20%, and FALSE if it equals or exceeds it?

> print(dat)
                                   compound  label
1  O=C(CCl)N1CCC2(CC1)CC(CNC(=O)C1(Nc3ccc(Cl)cc3)CCOCC1)C2  FALSE
2  O=C(CCl)NCCC1CCN(C(=O)C2(Nc3ccc(Cl)cc3)CCOCC2)CC1   TRUE
3  O=C(CCl)NCCC1CCN(C(=O)C2(Nc3ccc(Cl)cc3)CCNCC2)CC1  FALSE
4  O=C(CCl)NCC1CCN(C(=O)C2(Nc3ccc(Cl)cc3)CCCCC2)CC1   TRUE

Query: A record lists O=C(CCl)N1CCC2(CC1)CCN(C(=O)C1(Nc3ccc(Cl)cc3)CCOCC1)CC2 . Is its Percentage (%) bound of compound to 14-3-3σ, ERα 8h below 20%?
Response: FALSE

Query: A record lists NC1CCC(Oc2ccc(Cl)cc2)(C(=O)N2CCC(CNC(=O)CCl)CC2)CC1 (stereo not shown) . Is its Percentage (%) bound of compound to 14-3-3σ, ERα 8h below 20%?
Response: FALSE

Query: A record lists O=C(CCl)NCC1CCN(C(=O)C2(Nc3ccccc3)CCCCC2)CC1 . Is its Percentage (%) bound of compound to 14-3-3σ, ERα 8h below 20%?
Response: TRUE

Query: A record lists CC(C)(Oc1ccc(Cl)cc1)C(=O)N1CCC(CCNC(=O)CCl)CC1 . Is its Percentage (%) bound of compound to 14-3-3σ, ERα 8h below 20%?
Response: TRUE

Query: A record lists Cl.O=C(CCl)NCC1CCN(C(=O)C2(Nc3ccccc3)CCNCC2)CC1 . Is its Percentage (%) bound of compound to 14-3-3σ, ERα 8h below 20%?
Response: TRUE
